Consider the following binders and their measured in vitro binding activity ratio to antibody 20 readings.
# measured on: T1, mucin subtype 5AC (human, UniProt P98088 28-5654, limits assumed)
# T1 construct: Not a purified recombinant protein; also called MUC5AC; crude extract antigen solution
# method summary: ELISA, plate coated with mucin fraction (CsCl isopycnic centrifugation of SW1990 tumor crude extract), HRP anti-human IgG
Please respond with the number in fold vs antibody 20 and leave the unit unwritten.

Quick one: in vitro binding activity ratio to antibody 20 for antibody 3 (antibody, V domains shown, Humanized antibody of the invention; also called H01L03) VH: EVQLLESGGGLVQPGGSLRLSCAASGFTFSNYGMSWVRQAPGKGLEWVSTISNSGRYTYFPDSVKGRFTISRDNSKNTLYLQMNSLRAEDTALYYCTRHLDYANYDAMDYWGQGTLVTVSS VL: DIQMTQSPSSLSASVGDRVTITCRASKSVTTSDFSYMHWYQQKPGKSPKLLIYLASNLESGVPSRFSGSGSGTDFSLTISSLQPEDFATYYCQHSREFPWTFGGGTKVEIK ? 1.56

Quick one: in vitro binding activity ratio to antibody 20 for antibody 19 (antibody, V domains shown, also called H05L07) VH: EVQLLESGGGLVQPGGSLRLSCAASGFTFSNYGMSWVRQAPGKGLEWVSTISNSGRYTYFPDSVKGRFTISRDNSKNTLYLQMNSLRAEDTAVYYCAKHLDYANYDAMDYWGQGTLVTVSS VL: DIVMTQTPLSLSVTPGQPASISCRASKSVTTSDFSYMHWYLQKPGQPPQLLIYLASNLESGVPDRFSGSGSGTDFTLKISRVEAEDVGVYYCQHSREFPWTFGQGTKVEIK ? 0.49

Quick one: in vitro binding activity ratio to antibody 20 for antibody 17 (antibody, V domains shown, also called H05L05) VH: EVQLLESGGGLVQPGGSLRLSCAASGFTFSNYGMSWVRQAPGKGLEWVSTISNSGRYTYFPDSVKGRFTISRDNSKNTLYLQMNSLRAEDTAVYYCAKHLDYANYDAMDYWGQGTLVTVSS VL: DIQMTQSPSSLAVSLGDRVTITCRASKSVTTSDFSYMHWYQQKPGLAPKLLIYLASNLESGVPSRFSGSGSGTDFTFTISSLQPEDIATYYCQHSREFPWTFGQGTKVEVK ? 0.75
